Measured values drawn from the Human Domainome abundance scans (Beltran et al. 2025) for this set.

B1: Formin-binding protein 4, residues 200 to 261; numbered along this chain, Q8N3X1 (parent)
chain: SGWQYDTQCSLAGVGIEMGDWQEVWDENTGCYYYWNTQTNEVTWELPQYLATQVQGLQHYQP

variants of: B1; test: abundance fitness (aPCA) (normalised: wild type 0, dead -1); higher = more abundant; growth selection in yeast, the domain comes from the species named; settings: Homo sapiens
Hi there, I'd appreciate the recorded abundance fitness for every entry that follows.
Give bare numbers.

1. Q38H; -0.022
2. W35K; 0.355
3. T43M; -0.317
4. W21R; -0.811
5. Q61P; -0.201
6. A51K; -0.025
7. L11M; -0.625
8. C9G; -0.081

Note: attention shifts to another entry.
stdin: Item `L57V` has what recorded abundance fitness?
stdout: -0.047
